These entries and their values trace back to PubChem BioAssay.

# Test target: Dickkopf-related protein 1 (Homo sapiens) (UniProt O94907)
# Sequence (O94907 whole entry, looked up): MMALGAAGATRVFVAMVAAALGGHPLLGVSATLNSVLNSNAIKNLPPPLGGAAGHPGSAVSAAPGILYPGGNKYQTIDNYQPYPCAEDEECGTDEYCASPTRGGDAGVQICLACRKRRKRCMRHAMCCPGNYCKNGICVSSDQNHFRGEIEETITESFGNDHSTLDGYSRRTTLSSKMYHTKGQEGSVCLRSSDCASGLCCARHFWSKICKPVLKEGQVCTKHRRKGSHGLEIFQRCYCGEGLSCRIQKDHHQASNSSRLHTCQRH
# Assay notes: DKK1 binders on small-molecule microarrays, primary screen, biochemical, small-molecule microarray, 635 nm fluorescence scan (AID 1106);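 also: score merges emission near 667 nm with signal to noise over three replicate slides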
# Particulars: DKK1 binding, higher = more signal
Outcome measure: composite z-score
// response body must contain only the number

Example cases with answers are listed next.
{"Compound": "COC(=O)C1=CC(c2ccc(CO)cc2)=CC(c2cccs2)N(C)C=C1C(=O)OC (stereo not drawn)", "Test target": "Dickkopf-related protein 1 (Homo sapiens) (UniProt O94907)", "Reported value": -0.813}
{"Compound": "C[C@@H](OCc1ccccc1)C1NC(=O)[C@@]23C(=O)N[C@@H](Cc4ccccc4)C2[C@H](C)[C@@]2(C)O[C@H]2C3/C=C/C/C=C\\CNC(=O)[C@@H]2CCCN2C1=O (stereo partly drawn)", "Test target": "Dickkopf-related protein 1 (Homo sapiens) (UniProt O94907)", "Reported value": 0.34}

The recorded composite z-score for entry COCCOC(=O)N1C(=O)[C@@]2(c3cc(C#CCCO)ccc31)[C@H](c1ccccc1OCCO)N1[C@H](c3ccccc3)[C@H](c3ccccc3)OC(=O)[C@H]1[C@@H]2C(=O)NC[C@H](O)c1ccccc1 equals 0.74

* * *

Below, each entry is listed alongside its reported fold change.
# Assay notes: esBAF inhibition via Bmi1 de-repression, confirmation, cell-based, RT-qPCR, mouse ESC, single point, cherry-pick (AID 743180);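 also: higher fold means more Bmi1 de-repression and stronger esBAF inhibition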
# Particulars: mouse ESC E14, Bmi1 mRNA qPCR fold; at 33 µM; stronger effect = higher value
The other results are listed elsewhere or left out.
// response body must contain only the number

{"Smiles string": "Cc1nc(-c2ccccc2)sc1-c1nnc(C2CC2)o1", "fold change": 1.79}
{"Smiles string": "Cc1cc(Cl)nc(NC(=O)Nc2cccc(Cl)c2)n1", "fold change": 1.24}
{"Smiles string": "Cc1ccc(-c2nc(COC(=O)c3c(C)noc3C)cs2)cc1", "fold change": 1.73}
{"Smiles string": "CCS(=O)(=O)n1nc(-c2ccc(OC)cc2)nc1SC", "fold change": 1.6}

// next item, fold change requested
The recorded fold change for entry COC(=O)/C(=C1\Oc2ccc(C(C)(C)C)cc2S1)C(F)(F)F equals 1.42

* * *

# Test target: Epidermal growth factor receptor (Homo sapiens) (UniProt P00533)
# Sequence (P00533 whole entry, looked up): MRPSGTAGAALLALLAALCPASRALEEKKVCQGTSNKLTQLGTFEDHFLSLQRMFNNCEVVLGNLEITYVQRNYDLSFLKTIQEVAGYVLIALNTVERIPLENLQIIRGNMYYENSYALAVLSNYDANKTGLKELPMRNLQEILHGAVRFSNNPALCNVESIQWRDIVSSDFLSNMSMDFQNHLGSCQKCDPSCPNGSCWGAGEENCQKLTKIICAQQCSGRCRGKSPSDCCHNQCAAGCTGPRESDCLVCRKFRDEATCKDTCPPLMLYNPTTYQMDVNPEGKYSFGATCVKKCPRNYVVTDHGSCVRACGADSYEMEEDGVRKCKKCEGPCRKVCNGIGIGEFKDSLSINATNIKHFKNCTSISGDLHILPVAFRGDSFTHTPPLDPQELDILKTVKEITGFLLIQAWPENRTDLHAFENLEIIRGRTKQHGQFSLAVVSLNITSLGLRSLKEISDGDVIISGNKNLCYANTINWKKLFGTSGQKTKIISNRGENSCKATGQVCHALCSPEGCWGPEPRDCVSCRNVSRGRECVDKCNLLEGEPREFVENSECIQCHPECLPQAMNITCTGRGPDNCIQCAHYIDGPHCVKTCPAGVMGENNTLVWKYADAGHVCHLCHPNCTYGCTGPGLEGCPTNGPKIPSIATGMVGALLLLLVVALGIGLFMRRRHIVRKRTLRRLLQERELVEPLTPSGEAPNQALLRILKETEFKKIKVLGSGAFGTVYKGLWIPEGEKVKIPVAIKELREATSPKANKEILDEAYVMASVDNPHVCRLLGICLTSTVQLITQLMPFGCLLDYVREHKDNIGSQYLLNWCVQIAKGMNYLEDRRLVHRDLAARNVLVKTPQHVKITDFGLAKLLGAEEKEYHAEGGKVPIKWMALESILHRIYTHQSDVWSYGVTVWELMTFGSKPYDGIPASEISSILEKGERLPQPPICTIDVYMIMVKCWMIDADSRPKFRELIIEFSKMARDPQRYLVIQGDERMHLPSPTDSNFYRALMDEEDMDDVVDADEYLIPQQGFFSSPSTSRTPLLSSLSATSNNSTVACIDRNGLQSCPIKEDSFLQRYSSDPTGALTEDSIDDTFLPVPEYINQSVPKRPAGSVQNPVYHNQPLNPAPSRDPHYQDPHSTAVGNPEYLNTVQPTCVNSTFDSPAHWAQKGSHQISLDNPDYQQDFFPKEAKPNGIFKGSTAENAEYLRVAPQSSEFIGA
# Assay notes: EGFR binders on small-molecule microarrays, primary screen, biochemical, small-molecule microarray, 635 nm fluorescence (AID 1104);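 also: score merges 667 nm emission intensity with spot signal to noise over triplicate slides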
# Particulars: EGFR binding, higher = more signal
Below, each entry is listed alongside its reported composite z-score.
// response body must contain only the number

Example cases with answers are listed next.
{"Compound": "C=CCN1C(=O)[C@@]2(O[C@@H](CCn3cc(CCO)nn3)[C@H]([Si](C)(C)c3ccc(OC)cc3)[C@H]2C)c2cc(NC(=O)c3ccc(OC)cc3)ccc21", "composite z-score": 0.283}
{"Compound": "C=C[C@H](OC)[C@@H](OC(=O)Nc1ccc(OC)cc1)c1ccc(OC)c(O)c1", "composite z-score": -1.91}
{"Compound": "O=C(NC1CC1)[C@@H]1c2ccccc2C(=O)N(Cc2ccccc2C(F)(F)F)[C@H]1c1ccc(CO)cc1", "composite z-score": 0.388}
{"Compound": "C=CCOC(=O)[C@H]1[C@@H]2C(=O)O[C@@H](c3ccccc3)[C@@H](c3ccccc3)N2[C@@H](c2ccc(OCCOC(=O)[C@H]3C[C@H]4C(=O)N5CCC[C@H]5C(=O)N4[C@H]3c3cccc(OCCO)c3)cc2)[C@]12C(=O)Nc1ccccc12", "composite z-score": 0.649}
{"Compound": "C=C(C1=CCN(S(=O)(=O)c2ccc(C)cc2)C1)[C@@H](OC(C)=O)[C@@H]1CCCN1S(=O)(=O)c1ccccc1[N+](=O)[O-]", "composite z-score": -0.0578}

The recorded composite z-score for entry C=C(C(=O)CC[C@@H](OC(C)=O)c1ccccc1OCCO)C(C)C equals -0.847

The recorded composite z-score for entry C=CC[C@@]1(C(=O)NCc2ccccc2)N=C(c2ccc(OCCCO)cc2)O[C@@H]1c1ccccc1 equals -1.08

The recorded composite z-score for entry CN1C=C(C(=O)OCCS(C)(=O)=O)C(C(=O)OCCS(C)(=O)=O)=CC(CCCO)=CC1c1cccs1 (stereo not given) equals 0.56

The recorded composite z-score for entry C=C(CCCC)/C(=C/C[C@H](OC(=O)c1ccncc1)c1ccc(CO)o1)c1cnc2ccccc2c1 equals 0.474

The recorded composite z-score for entry C=CCNC(=O)[C@H]1[C@@H]2C(=O)O[C@@H](c3ccccc3)[C@@H](c3ccccc3)N2[C@@H](c2ccc(OCCO)cc2)[C@]12C(=O)Nc1ccc(C#CCCO)cc12 equals -0.105

The recorded composite z-score for entry O=C1O[C@H](c2ccccc2)[C@H](c2ccccc2)N2[C@H]1[C@@H](C(=O)Nc1nc3ccccc3s1)[C@]1(C(=O)Nc3ccc(C#CCCO)cc31)[C@H]2c1ccccc1OCCO equals 0.289

* * *

# Assay notes: basal MM1S mitochondrial membrane potential changes, profiling panel, cell-based, JC-1 fluorescence, 24 h, 100 nL compound (AID 1170)
# Particulars: higher = more signal
Note that class boundaries on z-score are range 1: < -0.7; range 2: ≥ -0.7 and < -0.4; range 3: ≥ -0.4

Solved cases below.
{"Compound": "COc1ccc([Si](C)(C)[C@@H]2[C@@H](CC(=O)N3CCC[C@H]3CO)O[C@]3(C(=O)N(Cc4ccc(I)cc4)c4ccccc43)[C@H]2C)cc1", "Discrete label": "range 1"}
{"Compound": "CC1CC/C=C\\[C@H]2OC34C=CCN(C(C)C)C(=O)[C@H]3N(C(CO)C(C)C)C(=O)[C@@H]4C2C(=O)O1 (stereo not given in full)", "Discrete label": "range 3"}
{"Compound": "C=CC[C@]1(C(=O)N2CCCCC2)COC(c2ccc(OCCCO)cc2)=N1", "Discrete label": "range 2"}
{"Compound": "CC(C)CCC[C@@H](C)[C@H]1CC[C@@]2(C)C3=C(CC[C@]12C)[C@@]1(C)CC[C@H](OC(=O)CCl)C(C)(C)C1CC3 (stereo not given in full)", "Discrete label": "range 3"}

Qu. Please report the category associated with C=C(CCCC)/C(=C/C[C@H](OC(=O)c1ccncc1)c1ccc(CO)o1)c1cnc2ccccc2c1 , nothing else.
Ans. range 2

Qu. Please report the category associated with COc1c(C)cc(-c2cc3c(c(CCc4ccccc4)n2)[Si](C(C)C)(C(C)C)OC3)cc1C , nothing else.
Ans. range 3

* * *

Below, each entry is listed alongside its reported composite z-score.
# Test target: Calmodulin-1 (Homo sapiens) (UniProt P0DP23)
# Assay notes: CALM1 binders on microarrays, EGTA buffer, profiling panel, biochemical, small-molecule microarray, Cy5-labelled CALM1 (AID 1111);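 also: labelled calmodulin applied in Tris saline Tween buffer holding calcium plus EGTA and DTT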
# Particulars: Cy5-CALM1 binding fluorescence, higher = more signal
// response body must contain only the number

Example cases with answers are listed next.
{"Smiles string": "O=C1N(CCS(=O)(=O)c2ccccc2)Cc2ccccc2[C@@H]2OC(c3ccc(OCCCO)cc3)=N[C@]12Cc1ccccc1", "composite z-score": 1.88}
{"Smiles string": "COc1ccc([Si](C)(C)[C@@H]2[C@@H](CCn3cc(CCO)nn3)O[C@]3(C(=O)N(Cc4ccc(N5C(=O)c6cccc7cccc5c67)cc4)c4ccccc43)[C@H]2C)cc1", "composite z-score": 1.22}

// next item, composite z-score requested
The recorded composite z-score for entry CC(C)N1C(=O)c2ccccc2[C@@H](C(=O)NCc2ccccc2)[C@@H]1c1ccc(CO)cc1 equals -0.808

* * *

# Test system: Human papillomavirus type 1a E7 protein (residues 1-88)
# Assay notes: HPV1a E7 small-molecule binders, primary screen, biochemical, small-molecule microarray, residues 1-88, 635 nm (AID 1129)
# Particulars: small-molecule microarray binding, fluorescence 635 nm; higher = more signal
Outcome measure: composite z-score
// response body must contain only the number

Example cases with answers are listed next.
{"Compound": "CCCCC(=C=CC[C@H](O)c1cccc(OCCO)c1)CCO", "composite z-score": -0.282}
{"Compound": "CC(C)(C)OC(=O)CC[C@]1(C(=O)NCc2ccccc2)N=C(c2ccc(OCCCO)cc2)O[C@H]1c1ccccc1N=[N+]=[N-]", "composite z-score": 1.25}
{"Compound": "CCCNC(=O)[C@@]1(Sc2ccc(C)cc2)CC(=O)N(Cc2cc(C(F)(F)F)cc(C(F)(F)F)c2)[C@@H]1c1ccc(CO)cc1I", "composite z-score": -0.574}
{"Compound": "C=CCNC(=O)[C@@H]1[C@H]2C(=O)O[C@H](c3ccccc3)[C@H](c3ccccc3)N2[C@H](c2ccc(O)cc2)[C@@]12C(=O)Nc1ccccc12", "composite z-score": -0.227}
{"Compound": "C=CCC1(CC=C)C[C@H]2CO[C@H](c3ccc(OC)cc3)N2C1=O", "composite z-score": -0.154}

The recorded composite z-score for entry CCCC[C@@H](O)C1=C(C)C[C@H]2C(=O)N(C)C(=O)[C@H]2[C@H]1CO equals -0.196

The recorded composite z-score for entry CC(C)C[C@@H]1NC(=O)[C@@]23C(=O)N[C@@H](Cc4ccccc4)C2[C@H](C)[C@@]2(C)O[C@H]2C3/C=C/CC/C=C/CNC(=O)[C@@H](C)NC1=O (some centres undefined) equals -0.649

The recorded composite z-score for entry O=C(N1CCCCC1)[C@@]1(Cc2ccccc2)N=C(c2ccc(OCCCO)cc2)O[C@H]1c1ccccc1 equals 1.07

The recorded composite z-score for entry C#CCOc1ccc(C[C@H]2C(=O)O[C@H](Cc3ccccc3)[C@H](/C=C/C3CC3)N2CC#C)cc1 equals 0.128

The recorded composite z-score for entry CCCCCN1CC=CC23O[C@@H]4/C=C\CCC(C)OC(=O)C4[C@H]2C(=O)N(CCCO)[C@@H]3C1=O (some centres undefined) equals -0.719

The recorded composite z-score for entry COCCOC(=O)N1C(=O)[C@@]2(c3cc(C#CCNC(N)=O)ccc31)[C@H](C(=O)NC[C@H](O)c1ccccc1)[C@H]1C(=O)O[C@H](c3ccccc3)[C@H](c3ccccc3)N1[C@@H]2c1ccc(O)cc1 equals 0.502

The recorded composite z-score for entry CC(C)[C@@H](C(=O)O)n1cc(-c2ccccn2)nn1 equals 1.08

The recorded composite z-score for entry COc1ccc(C#Cc2ccc3c(c2)[C@]2(C(=O)N3)[C@H](c3ccc(O)cc3)N3[C@H](c4ccccc4)[C@H](c4ccccc4)OC(=O)[C@H]3[C@@H]2C(N)=O)cc1 equals -0.0669
